# TARGET: Bcat-Halo (UniProt P35222)
# Sequence (P35222 whole entry): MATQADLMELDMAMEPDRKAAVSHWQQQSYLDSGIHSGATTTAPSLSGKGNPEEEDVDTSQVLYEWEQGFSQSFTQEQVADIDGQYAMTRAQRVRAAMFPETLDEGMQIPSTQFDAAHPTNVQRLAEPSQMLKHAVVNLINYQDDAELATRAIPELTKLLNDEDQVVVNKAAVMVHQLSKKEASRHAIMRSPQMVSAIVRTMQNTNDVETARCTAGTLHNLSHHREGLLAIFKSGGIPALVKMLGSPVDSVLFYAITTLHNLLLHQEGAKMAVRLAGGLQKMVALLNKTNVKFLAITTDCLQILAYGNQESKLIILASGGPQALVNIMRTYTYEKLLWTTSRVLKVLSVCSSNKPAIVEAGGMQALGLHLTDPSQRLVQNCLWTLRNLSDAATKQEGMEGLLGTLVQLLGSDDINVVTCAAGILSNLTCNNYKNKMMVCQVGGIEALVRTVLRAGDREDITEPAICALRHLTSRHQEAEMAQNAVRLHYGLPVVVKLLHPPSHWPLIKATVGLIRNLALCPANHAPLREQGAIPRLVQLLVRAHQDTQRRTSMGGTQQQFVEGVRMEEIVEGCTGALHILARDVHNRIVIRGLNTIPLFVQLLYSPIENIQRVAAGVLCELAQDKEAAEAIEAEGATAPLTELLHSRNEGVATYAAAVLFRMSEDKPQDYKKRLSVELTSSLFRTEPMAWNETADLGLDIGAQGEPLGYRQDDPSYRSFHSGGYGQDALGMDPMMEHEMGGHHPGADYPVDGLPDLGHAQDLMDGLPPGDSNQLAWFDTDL
# EXPERIMENT_NOTES: NanoBRET Abs IC50, HEK293 cells; B-cat-Halo/TCF4-Luc engagement, competitor TCF4-Luc
pIC50: −log10 of the molar value. Starred links: 1 amine or outer side, 2 acyl side, 3 side chain; linkers in the order of their positions; H or OH if unused. Positions of bridges follow the written chain, without caps; N, C: chain ends. Non-standard residues stand in square brackets, D forms with d. Primed or numbered codes have the meaning given here. No end group written: not given here. PyrS2″ = (S)-3-amino-1-((pent-4-en-1-yloxy)carbonyl)pyrrolidine-3-carboxylic acid (stapling residue), C=CCCCOC(=O)N1CC[C@@](N[*:1])(C(=O)[*:2])C1; B5(4) = 2,2-bis(4-pentenyl)glycine = 2-amino-2-(pent-4-en-1-yl)hept-6-enoic acid (stitching residue), C=CCCCC(CCCC=C)(N[*:1])C(=O)[*:2]; PyrS2 = (S)-3-amino-1-((pent-4-en-1-yloxy)carbonyl)pyrrolidine-3-carboxylic acid, C=CCCCOC(=O)N1CC[C@@](N[*:1])(C(=O)[*:2])C1; Phe(2-CF3) = N[C@@H](Cc1ccccc1C(F)(F)F)C(=O)O; Bta = N[C@@H](Cc1csc2ccccc12)C(=O)O; αAllylPro = C=CC[C@@]1(C(=O)O)CCCN1; tBuAla = CC(C)(C)C[C@H](N)C(=O)O; 2Thi = N[C@@H](Cc1cccs1)C(=O)O; 3Thi = N[C@@H](Cc1ccsc1)C(=O)O
PARAMETER_MEASURED: pIC50

BINDER	pIC50
[αAllylPro]D[tBuAla][B5(4)]DDAAFF[PyrS2″][2Thi][Bta]Q-NH2 (staple 1-4, 4-11) [I-1345]	5.33

1 = Ac-[αAllylPro]D[tBuAla][B5(4)]DDAAF[Phe(2-CF3)][PyrS2][3Thi][Bta]Q-NH2 (staple 1-4, 4-11) [I-1363]
2 = [αAllylPro]D[tBuAla][B5(4)]DDAAFS[PyrS2″]F[Bta]S-NH2 (staple 1-4, 4-11) [I-1357]
Prompt: I'd appreciate it if you could identify which of 1 and 2 has the greater pIC50. Returns: label corresponding to the selected item.
Completion: 1
(1: 5.26, 2: 4.47)

Data provenance: patent US20240116985A1
